System: Influenza A virus
test-method-notes: Antiviral activity against influenza A virus H1N1 infected in MDCK cells assessed as reduction in virus induced cytopathic effect by CPE assay
Format: functional, organism-based
experimental-endpoint: pEC50
pEC50 is a log-scale quantity: -log10 of the concentration expressed in molar.

                          molecular_string  quantitative_readout
0  COc1c(O)cc2oc(-c3cccc(Br)c3)cc(=O)c2c1O                  5.35

Next, consider the following compound.
Inquiry: pEC50 for `COc1c(O)cc2oc(-c3ccccc3Br)cc(=O)c2c1O` ?
Reply text: 5.40

====

experimental-target: UniProt:P37136
Sequence (P37136 whole entry): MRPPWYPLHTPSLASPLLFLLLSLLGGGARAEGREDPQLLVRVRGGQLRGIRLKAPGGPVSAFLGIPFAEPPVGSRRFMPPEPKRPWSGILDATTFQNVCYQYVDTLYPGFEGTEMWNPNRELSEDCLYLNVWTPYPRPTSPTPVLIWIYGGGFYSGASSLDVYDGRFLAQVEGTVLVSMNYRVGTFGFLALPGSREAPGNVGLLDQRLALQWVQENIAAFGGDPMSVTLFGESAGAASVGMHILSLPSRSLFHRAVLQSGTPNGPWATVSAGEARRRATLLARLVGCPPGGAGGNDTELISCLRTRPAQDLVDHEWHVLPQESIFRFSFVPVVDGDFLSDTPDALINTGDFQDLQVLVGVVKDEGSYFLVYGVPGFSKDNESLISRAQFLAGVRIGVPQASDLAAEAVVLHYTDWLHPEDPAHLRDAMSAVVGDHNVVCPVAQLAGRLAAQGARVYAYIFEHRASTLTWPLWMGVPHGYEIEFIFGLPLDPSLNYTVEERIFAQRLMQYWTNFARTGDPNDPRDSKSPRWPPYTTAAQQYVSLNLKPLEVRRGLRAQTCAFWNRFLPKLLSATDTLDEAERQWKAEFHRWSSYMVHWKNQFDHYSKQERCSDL
experimental-endpoint: pIC50
API: returns pIC50 as number; meaning -log10 of concentration in mol/L.

Inquiry: Which measured pIC50 belongs to `CCN(CC)C(=O)Oc1ccc(-c2cc(=O)c3c(O)c(OC)c(OC)cc3o2)cc1` , tested on UniProt:P37136?
Reply text: 5.92
